system: Mtb Lpd (Mycobacterium tuberculosis (strain ATCC 25618 / H37Rv), UniProt P9WHH9)
Assay type: biochemical
applied_conditions: read-out: LPD IC50
Returns: string. Value is 1 if measured IC50 is below 80 nM, and 0 if it is greater than or equal to it.

molecule	group
Cc1cc(S(=O)(=O)N2CC[C@H]2C(=O)Nc2ccc3cccnc3c2)c2[nH]ncc2c1 [Example 106]	1
Cc1cc(S(=O)(=O)N2CC[C@H]2C(=O)Nc2ccc3c(c2)OCCN3C)c2[nH]ncc2c1 [Example 40]	1
CN(CC(=O)Nc1ccc2c(c1)OCCN2C1CCOCC1)S(=O)(=O)c1cc(C(F)F)cc2c(F)[nH]nc12 [Example 175]	0
Cc1cc(S(=O)(=O)N2CCC2C(=O)NCc2ccccc2)c2[nH]ncc2c1 (centres unmarked) [Example 81]	0
CC(C)(CO)N1CCOc2cc(NC(=O)[C@@H]3CCN3S(=O)(=O)c3cc(C(F)F)cc4cn[nH]c34)ccc21 [Example 177]	0
Cc1cc(S(=O)(=O)N(C)CC(=O)Nc2ccn3cnnc3c2)c2n[nH]cc2c1 [Example 102]	1
Cc1cc(S(=O)(=O)N(C)CC(=O)Nc2ccc3c(c2)OC(C)(C)CN3C)c2n[nH]cc2c1 [Example 158]	1

----------
system: Mtb Lpd (Mycobacterium tuberculosis (strain ATCC 25618 / H37Rv), UniProt P9WHH9)
Format: biochemical
applied_conditions: read-out: LPD IC50
Quick reference: IC50 of the listed items.
parameter_measured: IC50 (nM)

compound	parameter_measured	result_number
Cc1cc(S(=O)(=O)N(CC(=O)Nc2ccn(C)c(=O)c2)C2COC2)c2[nH]ncc2c1 [Example 38]	IC50	420
CCc1ccc(NC(=O)CN(C)S(=O)(=O)c2cc(C)cc3cc[nH]c23)cc1C [Example 21]	IC50	136
Cc1cc(S(=O)(=O)N(C)CC(=O)NCC#Cc2ccccc2)c2[nH]ncc2c1 [Example 203]	IC50	43
Cc1cc(S(=O)(=O)N2CC[C@H]2C(=O)Nc2ccn(C)c(=O)c2)c2[nH]nc(Cl)c2c1 [Example 178]	IC50	211
CC#CCNC(=O)CN(C)S(=O)(=O)c1cc(C)cc2cn[nH]c12 [Example 204]	IC50	45
Cc1cc(S(=O)(=O)N(C)CC(=O)Nc2ccc(C3CCCCC3)c(C)c2)c2[nH]c(C)cc2c1 [Example 42]	IC50	573
Cc1cc(S(=O)(=O)N(C)CC(=O)Nc2ccn(C)c(=O)c2)c2n[nH]c(F)c2c1 [Example 95]	IC50	51.3
Cc1cc(S(=O)(=O)N(C)CC(=O)Nc2ccc3nccn3c2)c2n[nH]cc2c1 [Example 48]	IC50	42.1

----------
system: Mtb Lpd (Mycobacterium tuberculosis (strain ATCC 25618 / H37Rv), UniProt P9WHH9)
Assay type: biochemical
applied_conditions: 30 min preincubation; read-out: LPD IC50 (μM) w/ 30 min preincubation

input_smiles	system	IC50 [µM]
Cc1cc(S(=O)(=O)N(C)CC(=O)Nc2ccc(C3CC3)c(Cl)c2)c2[nH]c(C#N)cc2c1	Mtb Lpd (Mycobacterium tuberculosis (strain ATCC 25618 / H37Rv), UniProt P9WHH9)	0.036
Cc1cc(S(=O)(=O)N(C)CC(=O)Nc2ccc(N3CCOCC3)c(Cl)c2)c2[nH]ncc2c1	Mtb Lpd (Mycobacterium tuberculosis (strain ATCC 25618 / H37Rv), UniProt P9WHH9)	0.015
Cc1cc(S(=O)(=O)N(C)CC(=O)NCC#Cc2ccccc2)c2[nH]c(C#N)cc2c1	Mtb Lpd (Mycobacterium tuberculosis (strain ATCC 25618 / H37Rv), UniProt P9WHH9)	0.03
CC#CCNC(=O)CN(C)S(=O)(=O)c1cc(C)cc2cn[nH]c12	Mtb Lpd (Mycobacterium tuberculosis (strain ATCC 25618 / H37Rv), UniProt P9WHH9)	0.024
Cc1cc(S(=O)(=O)N2CC[C@H]2C(=O)Nc2ccc3c(c2)OCCN3C2COC2)c2[nH]c(C#N)cc2c1	Mtb Lpd (Mycobacterium tuberculosis (strain ATCC 25618 / H37Rv), UniProt P9WHH9)	0.022
